assay.method.text: yeast display, Sf9 membrane polyspecificity reagent, FACS + sequencing; frameworks hold sequencing errors
metric: polyreactivity (PSR sort gate)

>>> reading("QVQLVESGGGLVQAGGSLRLSCAASGRTFTRNAMGWYRQAPGKERELVAAISYSGGSTYYADSVKGRFTISRDNAKNTVYLQMNSLKPEDTAVYYCNAATSRRSIRYDYWGQGTQVTVSS")
"high polyreactivity"
>>> reading("QVQLVESGGGLVQAGGSLRLSCAASGSTLVFSAMGWYRQAPGKERELVAAITRSGGSTYYADSVKGRFTITRDNAKNTVYLQMNSLKPEDTAVYYCAADERYIYERDSWGQGTQVSVSS")
"low polyreactivity"
>>> reading("QVQLVESGGGLDQAGGSLRLSCAASGRTFIAYARGWYRQAPGKERELVAAITSSGGSTNYADSVKGRFTISRDNAKNTVYLQMNSLKPEDTAVYYSATDIYECPYFYYSYYYWGQGTQVTVSS")
"low polyreactivity"
>>> reading("QVQLVESGGGLVQAGGSLRLSCSASGFIYPNNAMGWYRQAPGKERELVARISYGGGDTHYADSVKGRFTISRDNAKNTVYLQMNSLKPEDTAVYYCAVKDGQDDYWGQGTQVTVSS")
"low polyreactivity"
>>> reading("QVQLVESGGGLVQAGGSLSLSSAASGSTFHRNTMGWYRQAPGKERELVAGISLRGVRTYYADSVKGRFTISRDNAKNSVYLQMNSLKPEDTAVYYCAGGGPYTRNFKLGYWGQGTQVSVSS")
"high polyreactivity"
>>> reading("QVQLVESGGGLVQAGGSLRLSCAASGLIFSYNAMGWYRQAPGKERELVAAISYSGGSTYYADSVKGRFTISRDNAKNTVYLQMNSLKPEDTAVYYCAAVLSPDFYYWGQGTQVTVSS")
"high polyreactivity"
>>> reading("QVQLVESGGGLVQAGGSLRLSCAASGSTFSFNAMGWYRQAPGKERELVAAISRSGGRTYYADSVKGRFTISRDNAKNTVYLQMNSLKPEDTAVYYCNKVWFQRSVQPVEYVYWGQGTQVTVSS")
"high polyreactivity"
>>> reading("QDQLVESGGGLVQAGGSLRLSCAASGRTFGRYAMGWYRQAPGKERELVASISYSTDSTYYADSVKGRFTISRDNAKNTVYLQMNSLKPEDTAVYYCATDSVNVGSYVGDKHDYWGQGTQVTVSS")
"low polyreactivity"
>>> reading("QVQLVESGGGLVQAGGSLSLSCAATGLTFQQYAMGWYRQAPWKERELVAAITVSGGHTYYADSVKGRFTISRDNAKNTVYLQMNTLKPEDTAVYYCAAPPGYTGRYDYYYCGQGTQVTVSS")
"high polyreactivity"
>>> reading("QVQLVESGGGLVQEGGSLRLSCAASGLIFPSYARGWYRPAPGKERELVAGINTGGSTNYADSVKGRFTISRDNAKNTVSLQMNSQKPEDTAVYYCAKDNNYYWYVSPRDYWGLGTQVTVSS")
"low polyreactivity"
>>> reading("QVQLVESGGGLVQAGGSLRLSCAASGFIFRYYAMGWYRQAPGKERELVAAISRGGSTNYADSVKGRFTISRDNAKNTVYLQMNSLKPEDTAVYYCAARTVRARSKFEYWGQGTQVTVSS")
"high polyreactivity"
>>> reading("QVQLVESGGGLVQAGGSLRLSCAASGFIFSRNVMGWYRQAPGKDRELVAAISRSGGSTYYADSVKGRFTISRDNAKNTVYLQMNSLKPEDTAVYYCAAVRRVYSQNDYWGQGTQVTVSS")
"high polyreactivity"
>>> reading("QVQLVESGGGLVQEGGSLRLSCAASGSTFWVYVMGWYRPAAGKERELVAGISSRGGNTYYADSVKGRFTISRDKAKNSVYLQMNSLKPEDTAVYYCNAPYGGDYESARDYWGQGTQVTVSS")
"low polyreactivity"
>>> reading("QVQLVESGGGLVQAGGSLRLSCAASGSIFKYYAMGWYRQAPGKERELVAAISTGGTTNYADYVKGRFTISRDNAKNTVYLQMNSLKPEDTAVYYCNRDYLVRSRYKYYYWGQGTQVTVSS")
"low polyreactivity"
>>> reading("QVQLVESGRGLVHAGGSLRISCAASGSTYTWNVMGWYRQAPGKERELVADINSGADTSYADSVKGRFTISRDNAKNTVYLQMNSLKPEDTGVYYCAADIYVYDYWGQGTQVTVSS")
"low polyreactivity"
>>> reading("QVQLVDSGGGLVQAGGSLRLSCSASGITNGRNTMGLYRQAPGKERELVAAIDSGGNTYADSVKGRFTISRDNAKNTVYLQMNSLKPEDTAVYYCAVDGGEFSSYGYWGQGTQVTVSS")
"low polyreactivity"
>>> reading("QVQLVESGGGLVQAGGSLRLSCAASGYIFTYNAMGWYRQAPGKERELVAAISYSGGSTYYADSVKGRFTISRDNAKNTVYLQINSLNPEDTAVYYCNAVWRHTYGNYFWGQGTQVTVSS")
"high polyreactivity"
>>> reading("QVQLVESGGGLVQAGGSLRLSCAASGSTFRSYAMGWYRQAPGKERELVAAISRGGSTYYADSVKGRFTISRDNAKNTVYLQMNSLKPEDTAVYYCAARPPRGSWQYDYWGQGTQVTVSS")
"high polyreactivity"
>>> reading("QVQLVESGGGLVQAGGSLRLSCAASGLTSVTYAMGWYRQAPGKERELVAAITSRAGSTYYADSVKGRFTISRDNAKNTVYLQMNSLKPEDTAVYYCAKDIIRKVYAGYVGRYDYWGQGTQVTVSS")
"low polyreactivity"
>>> reading("QVQLVESGGGLVQAGGSLRLSCAASVRLFRGYAMGWYRQAPGKERELVAGITSGGSTKYADSVKGRFTISRDNAKNTVYLQMNSLKPEDTAVYDCAKGYLAYSYYARPYIRYYWGQGTQVTVSS")
"high polyreactivity"
>>> reading("QVQLEESGGGLVQAGGSLRLSCAASGRTFSYNAMGWYRQPPGKEREFVAAITWRGSSTYYADSVKWRFTISRDYEKNTVYLQMNSLIPDDTAVYECNARATNVIWGRYDYWGQGTQVTVSS")
"high polyreactivity"

* * *

assay.method.text: yeast display, Sf9 membrane polyspecificity reagent, FACS + sequencing; frameworks hold sequencing errors
metric: polyreactivity (PSR sort gate)

>>> reading("QVQLVESGGGLVQAGGSLRLSCAASGSIFGGNAMGWYRQAPGKERELVATIDFSGTSTYYADSVKGRFTISRDNAKITVYLQMNSLKPEDTAVYYCAVRSGYVNRRYDYWGQGTQVTVSS")
"low polyreactivity"
>>> reading("QVQLVESGGGLAQAGGSLRLSCAASGSTFYSYAMGWYRQAPGKERELVAGITWNDGSTYYADSVKGRFTISRDNAKNTVYLQMNSLKPEDTAVYYCNTDASPYLFDYWGHGTQVTVSS")
"low polyreactivity"
>>> reading("QVQLVESVGGLVQAGGSLRLSCAASGFNFDYYTMGWYRQAPGKEREFVAAINRRGDITYYADSVKGRFTISRDNAKNTVYLQMNSLKPEDTAVYYCAANLTCSSRYEYGYWGQGTQVTVSS")
"low polyreactivity"
>>> reading("QGQLVESGGGLVQAGGSLRLSCAASGRNFRINDMGWYRQAPGKERELVAAITWSGGSTYYADSVKGRCPISRDNAKNTVYLQMHSLKPEDTAVYYCAADQAYFWGYYYWGQGTQVTVSS")
"low polyreactivity"
>>> reading("QVQLVESGGGLVQAGGSLRLSCAASGFIFATYTMGWYRQAPGKERELVAAITWRGGSTYYADTVKGRFPISRDNAKNTVYLQMNSLKPEDTAVYYCAAQDVNSYRYVEDVYCGQGTQVTVSS")
"low polyreactivity"

* * *

assay.method.text: yeast display, Sf9 membrane polyspecificity reagent, FACS + sequencing; frameworks hold sequencing errors
metric: polyreactivity (PSR sort gate)

>>> reading("QVQLVESGGGLVQAGGSLRLSCAASGRTFRYYAMGWYRQAPGKERELVAAITISSGSTYYADSVKGRFTISRDNAKNTVYLQMNSLKPEDTAVYYCAATRRYHFDYWGQGTQVTVSS")
"high polyreactivity"
>>> reading("QVQLVESGGGLVQAGGSLRLSCAASGSTVRGYAKGWYRQAPGKERELGAAITWSGGTTYYADSVKGRFTISRDNAKTTVYLQMNSLKPEDTAVYYCAAQNWDSDPYDYWGQATQVTVSS")
"low polyreactivity"
>>> reading("QVQLVESGGGLVQAGGSLRLSFAASGIIFDINAMGWYRQAPGKERELVAAITTSVDSTYYADSVKGRFTISRDNAKNTVYLQMNSLKPEDTAVYYCAAGPGDSGDDYWGQGTQVTVSS")
"low polyreactivity"
>>> reading("QVQLVESVGGLVQAGGSLRLSCDATGNTFRIYAMGWYIHAPGKERQLVAAISQSGGSTYYADSVKGRFTISRDNAKNTVYLQMHSLKPEDTAVYYCNRRFAPFWGRDGYWGQGTQVTVSS")
"high polyreactivity"
>>> reading("QVQLVESGGVLVQAGGSLRLSCAASGRTFYLYAMGWYRHAPGKERELVAAISWSDDTTYYADSVKGRFTISRDNAKNTVYLQRNSLKPEDTAVYYCAAEQEQVALYDYWGQGTQVTVSS")
"high polyreactivity"
>>> reading("QVQLVESGGGLVQAGGSLRLSCAASGLTFSQNAMGWNRQPPGKERELVGAITRSGSTTHYADSVKGRFTISRDKAKNTVYLQMNSLKPEDTAVYYCAAVAFQTRYYYWGQGTQVTLSS")
"high polyreactivity"
>>> reading("QVQLVESGGGLVQAGGSLRLSCAASGSIFGYYAMGWYRQAPGKERELVAVITSGATTNYADSVKGRFTISRDNAKNTVYLQMNSLKPEDTAVYYCAARPQVKRGRYGYWGQGTQVTVSS")
"low polyreactivity"
>>> reading("QVQLVESGGGLVQAGGSLRLSCAASGLIFRYYTMGWYRQAPGKERELVATITKSGSSTYYADSVKGRFTISRDNAKNTVYLQMNSLKPEDTAVYYCAARAYPSYPRGVYAYYYWGQGTQVTVSS")
"high polyreactivity"
>>> reading("QVQLVESGGGLVQAGGSLRLSCAASGSIFWFNAMGWYRQAPGKERELVAAIRRIGGSTYYADSVKGRFTISRDNAKNTVYLQMNSLKPEDTAVYYCAAGVTFRGASYGYWGQGTQVTVSS")
"high polyreactivity"
>>> reading("QVQLLESGGGLVQAGGSLRLSCAASGSIFPAYSMGWYRQAPGKERELVASITGSGGSTYYADSVKGRFTISRDNAKNSVYLQMTSLKPEETAVYYCNARYYVYSATVDRYYHFYYWGQGTQVTVSS")
"high polyreactivity"
>>> reading("QVQLVESGGGIVQSGGSLRLICAASGGIFKYNAMGWYRQAPGKERELVAAINYSGGRTYYADSVKGRFTISRDNAKNTVYLQMNSLKPEDTAVYYCNALTRGHTGQPYTYDYWGQGTQVTVSS")
"high polyreactivity"
>>> reading("QVQLVESGGGLVQAGGSLRLSCAASGRTFARYARGWYRPAPGKERELVAAISSSGGSTYYADSVKGRFTISRDNAKNTVYLQMNSLKPEDTSVYYCVTYRNWWYDYWGQGTQVTVSS")
"high polyreactivity"
>>> reading("QVQLVESGGGLVHAGGSLSLSCAASGSTLRAYTMGWYRQSPGKERELVATITRRGGTTYYADSVKGRFTISRDNAKNTVYLQMNSLKPEDTAVYYCAAKWYSTHRYDYWGQGTQVTVSS")
"high polyreactivity"
>>> reading("QVQLVESGGGLVQAGGSLRLSCAASGSIFYSNVMGWYRLAPGKERELVAAITRGGGTNYADSVKGRFTISRDNAKNTVYLQMNSLKPEDTAVYYCNRDPQKYRWIPRYDYWGQGTQVTVSS")
"low polyreactivity"
>>> reading("QVQLVESGGGLVQAGGSLRLSCAASGSTFPGYAMGWYRQAPGKERELVATISSGGSTNYADSVKGRFTISRDNAKNTVYLQMNSLKPEDTAVYYCAKLRSAKFRYGYWGQGTQVTVSS")
"low polyreactivity"
>>> reading("QVHLVESGGGLVQAGGSLRLSCAASGRTFVAYAMGWYRQAPAKERELVARISSGGSTYYADSVKGRFTISRDNAKNTVYLQMNSLKPEDTAVYYCAADRGPFFVPWRRYDYWGQGTEVTVSS")
"low polyreactivity"
>>> reading("QVQLEESGGGLVQAGGSLRLSCAASGFIFLDYAMGWYRQAPGKERELVAAISSRGARTYYADSVKGRFTISRDNAKNTVYLQMNSLKPEDTAVYYCAARGPLDRYGYWGQGTQVTVSS")
"high polyreactivity"
>>> reading("QVQLVESGGGLVQAGGSLRLSCAASGSIFYTNAMGWYRQAHGKERELVAAIRTGGSTNYADSVKGRFTISRDNAKNTDYLQMNSLTPDDTAVYYCNADVYIRDLFYPYIYTYDYWGQGTQVTVSS")
"low polyreactivity"
>>> reading("QVQLVESGGGLVHAGGSLRLSCAASGSIFRRNAMGMSRQAPGKERELVASITSGASTYYADSVKGRFTISRDNAKNTVYIQMNSLKPEDTAVYYCAADIFVTAFASPMDYWGQGTQVTVSS")
"low polyreactivity"
>>> reading("QVQLVESGGGLVQAGGSLRLSCAASGRIFYGYTMGWYRQAPGKERELVASIDYSTGRTYYADSVKGRFTISRDNAKNTVYLQMNSLKPEDTAVYYCNADPNYSLLRYDYWGQGTQVTVSS")
"high polyreactivity"
>>> reading("QEQLQETGGGLVQAGGSLRLICASSGSIFFVYGMGWSRQAPGKERELVAGINAGTNTNYADSVRGRFTISRDNAKYTVHLQMNSLKPEDTAVYYCAADGNGYQAHEYWGQGTQVTVSS")
"high polyreactivity"
